target: recombinant human adrenergic beta 1 receptors (Homo sapiens, UniProt P08588); construct: purchased Euroscreen; test: Adrenergic β1 selectivity assay, [125I]-Iodocyanopindolol binding to membranes; details: inhibition of [125I]-Iodocyanopindolol binding, read-out: β1 bind pIC50 (converted)
Sequence (P08588 whole entry): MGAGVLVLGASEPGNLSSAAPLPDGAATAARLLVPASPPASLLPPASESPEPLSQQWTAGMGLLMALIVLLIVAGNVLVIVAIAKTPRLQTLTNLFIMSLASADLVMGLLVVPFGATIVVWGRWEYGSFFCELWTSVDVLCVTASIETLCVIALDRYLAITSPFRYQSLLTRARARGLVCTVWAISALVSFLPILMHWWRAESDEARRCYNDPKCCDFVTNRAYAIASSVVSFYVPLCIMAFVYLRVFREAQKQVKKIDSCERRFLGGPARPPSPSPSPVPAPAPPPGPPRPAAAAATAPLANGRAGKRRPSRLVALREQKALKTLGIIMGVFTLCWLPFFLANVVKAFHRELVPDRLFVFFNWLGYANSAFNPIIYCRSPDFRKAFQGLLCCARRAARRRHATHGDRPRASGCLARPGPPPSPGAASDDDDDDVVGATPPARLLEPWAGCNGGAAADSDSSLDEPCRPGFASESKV
Where a name gives a salt, the structure may show the parent alone.
Measurement Kind: IC50 (nM)

O=C1COc2c(CCNCCN(C(=O)CCNCCc3cc(Cl)ccc3F)C3CCCCC3)ccc(O)c2N1 [Example 34, bis(trifluoroacetate)] :: 1000
O=C1COc2c(CCNCCN(C(=O)CCOCCc3ccc(F)cc3)C3CCCCC3)ccc(O)c2N1 [Example 75, trifluoroacetate] :: 1260
O=C1COc2c(CCNCCN(C(=O)CCOCCc3ccccc3)C3CCCCC3)ccc(O)c2N1 [Example 70, trifluoroacetate] :: 3980
C[C@H](C1CCCCC1)N(CCNCCc1ccc(O)c2c1OCC(=O)N2)C(=O)CCNCCc1ccccc1 [Example 61, bis(trifluoroacetate)] :: 501
O=C(CCNCCc1cccc(Cl)c1)N(CCNCCc1ccc(O)c2[nH]c(=O)ccc12)C1CCCCCC1 [Example 3, bis(trifluoroacetate)] :: 1260
O=C1COc2c(CCNCCN(C(=O)CCNCCc3cccc(Cl)c3Cl)C3CCCCC3)ccc(O)c2N1 [Example 29, bis(trifluoroacetate)] :: 3160
CCCC[C@@H](C)N(CCNCCc1ccc(O)c2c1OCC(=O)N2)C(=O)CCNCCc1cc(F)ccc1C [Example 57, bis(trifluoroacetate)] :: 1580

A. Cc1ccc(F)c(CCNCCC(=O)N(CCNCCc2ccc(O)c3c2OCC(=O)N3)C2CCCCC2)c1 [Example 33, bis(trifluoroacetate)]
B. CCCC[C@@H](C)N(CCNCCc1ccc(O)c2c1OCC(=O)N2)C(=O)CCNCCc1cc(F)cc(Cl)c1 [Example 50, bis(trifluoroacetate)]
Between A and B , which one shows the larger IC50 value? Your choice should be expressed through its label.
A

* * *

target: recombinant human Dopamine Subtype D2s receptors (Homo sapiens, UniProt P14416); construct: purchased Perkin Elmer; experiment: Dopamine D2 selectivity assay, [3H]-spiperone binding to membranes; conditions: inhibition of [3H]-spiperone binding, read-out: D2 bind pIC50 (converted)
Sequence (P14416 1-414 isoform P14416-2): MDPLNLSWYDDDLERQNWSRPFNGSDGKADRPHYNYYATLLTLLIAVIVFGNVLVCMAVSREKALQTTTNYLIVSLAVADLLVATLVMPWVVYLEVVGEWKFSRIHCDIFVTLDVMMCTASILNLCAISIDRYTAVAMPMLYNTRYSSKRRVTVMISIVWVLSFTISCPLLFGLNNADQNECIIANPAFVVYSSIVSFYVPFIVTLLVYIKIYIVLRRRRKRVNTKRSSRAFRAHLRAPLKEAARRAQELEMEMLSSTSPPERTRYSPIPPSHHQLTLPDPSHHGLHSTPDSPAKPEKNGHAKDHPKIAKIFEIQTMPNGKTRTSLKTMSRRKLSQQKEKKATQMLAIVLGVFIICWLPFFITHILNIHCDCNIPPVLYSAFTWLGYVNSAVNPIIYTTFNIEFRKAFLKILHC
Measurement Kind: IC50 (µM)

Answered examples (2):
O=C1COc2c(CCNCCN(C(=O)CCNCCc3cc(F)ccc3F)C3CCCCCC3)ccc(O)c2N1 [Example 64, bis(trifluoroacetate)] :: 0.0631
O=C(CCNCCc1ccccc1)N(CCNCCc1ccc(O)c2[nH]c(=O)ccc12)C1CCCCCC1 [Example 7, bis(trifluoroacetate)] :: 0.316

1. O=C(CCNCCc1cc(F)cc(F)c1)N(CCNCCc1ccc(O)c2[nH]c(=O)ccc12)C1CCCCC1 [Example 15, bis(trifluoroacetate)]
2. Cc1cc(CCNCCC(=O)N(CCNCCc2ccc(O)c3c2OCC(=O)N3)C2CCCCC2)ccc1F [Example 40, bis(trifluoroacetate)]
3. O=C(CCNCCc1cccc(F)c1F)N(CCNCCc1ccc(O)c2[nH]c(=O)ccc12)C1CCCCC1 [Example 18]
# ascending order, key=IC50 Answer format: the labels, ordered as requested.
2, 1, 3
(2: 0.398 µM, 1: 1.26 µM, 3: 3.16 µM)

* * *

target: Adrenergic β2 (Homo sapiens, UniProt P07550); construct: Adherent H292 cells were removed from tissue culture flasks; endogenous in cells; host or cells: H292 cells; assay: Adrenergic β2 mediated cAMP production in H292 cells (AlphaScreen cAMP detection); format: cell-based; parameters: key: fraction of formoterol maximum activity (formoterol = 1); details: Intrinsic Activity as a fraction relative to the maximum activity determined for formoterol
Sequence (P07550 whole entry): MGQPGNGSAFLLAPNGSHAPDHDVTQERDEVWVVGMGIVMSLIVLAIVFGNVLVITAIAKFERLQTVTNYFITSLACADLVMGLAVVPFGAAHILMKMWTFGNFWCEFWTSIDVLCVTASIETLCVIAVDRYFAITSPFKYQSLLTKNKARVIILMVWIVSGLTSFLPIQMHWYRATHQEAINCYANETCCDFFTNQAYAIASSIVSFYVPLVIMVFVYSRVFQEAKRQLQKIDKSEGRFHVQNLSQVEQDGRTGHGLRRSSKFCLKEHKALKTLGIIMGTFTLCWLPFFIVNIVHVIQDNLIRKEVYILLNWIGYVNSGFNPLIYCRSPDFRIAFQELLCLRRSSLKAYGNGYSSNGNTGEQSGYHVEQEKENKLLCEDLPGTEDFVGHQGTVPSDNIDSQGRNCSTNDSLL
Measurement Kind: β2 Int Act

O=C1COc2c(CCNCCN(C(=O)CCNCCc3ccccc3)C3CCCCCC3)ccc(O)c2N1 [Example 24, bis(trifluoroacetate)] :: 0.85
O=C1COc2c(CCNCCN(C(=O)CCNCCc3ccc(F)c(F)c3)C3CCCCC3)ccc(O)c2N1 [Example 42, bis(trifluoroacetate)] :: 0.9
CCCC[C@@H](C)N(CCNCCc1ccc(O)c2c1OCC(=O)N2)C(=O)CCNCCc1ccc(F)c(C)c1 [Example 47, bis(trifluoroacetate)] :: 0.89

* * *

molecular target: recombinant human adrenergic beta 1 receptors (Homo sapiens, UniProt P08588); construct: purchased Euroscreen; assay: Adrenergic β1 selectivity assay, [125I]-Iodocyanopindolol binding to membranes; settings: inhibition of [125I]-Iodocyanopindolol binding, read-out: β1 bind pIC50 (converted)
Counter-ions that a name gives are not always drawn.
Measurement Kind: IC50 (µM)

Answered examples (2):
O=C1COc2c(CCNCCN(C(=O)CCNCCc3cc(F)cc(Cl)c3)C3CCCCCC3)ccc(O)c2N1 [Example 66, bis(trifluoroacetate)] :: 1.58
O=C1COc2c(CCNCCN(C(=O)CCNCCc3ccc(Cl)cc3Cl)C3CCCCC3)ccc(O)c2N1 [Example 31, bis(trifluoroacetate)] :: 3.16

I. O=C1COc2c(CCNCCN(C(=O)CCNCCc3ccc(Cl)c(Cl)c3)C3CCCCCC3)ccc(O)c2N1 [Example 26, bis(trifluoroacetate)]
II. O=C1COc2c(CCNCCN(C(=O)CCOCCc3cccc(Cl)c3)C3CCCCC3)ccc(O)c2N1 [Example 77, trifluoroacetate]
Between I and II , which one shows the larger IC50 value? Your choice should be expressed through its label.
II

* * *

Target: Adrenergic β2 (Homo sapiens, UniProt P07550)
Construct: Adherent H292 cells were removed from tissue culture flasks; endogenous in cells; host or cells: H292 cells
Test: Adrenergic β2 mediated cAMP production in H292 cells (AlphaScreen cAMP detection)
Format: cell-based
Set-up: key: fraction of formoterol maximum activity (formoterol = 1)
Conditions: Intrinsic Activity as a fraction relative to the maximum activity determined for formoterol
Experimental: Adrenergic β2 Mediated cAMP Production H292 cells were grown in 225 cm2 flasks incubator at 37° C., 5% CO2 in RPMI medium containing, 10% (v/v) FBS (foetal bovine serum) and 2 mM L-glutamine. […] The concentration of cAMP (cyclic adenosine monophosphate) in the cell lysate was determined using AlphaScreen™ methodology. […] Intrinsic Activity was expressed as a fraction relative to the maximum activity determined for formoterol in each experiment.
Where a name gives a salt, the structure may show the parent alone.
Measurement Kind: β2 Int Act

O=C1COc2c(CCNCCN(C(=O)CCNCCc3ccccc3Cl)C3CCCCC3)ccc(O)c2N1 [Example 28, bis(trifluoroacetate)] :: 0.86
O=C1COc2c(CCNCCN(C(=O)CCNCCc3ccccc3)C3CCCCC3)ccc(O)c2N1 [Example 23, bis(trifluoroacetate)] :: 0.79
O=C1COc2c(CCNCCN(C(=O)CCOCCc3ccccc3)C3CCCCC3)ccc(O)c2N1 [Example 70, trifluoroacetate] :: 0.97
CC(C)[C@@H](C)N(CCNCCc1ccc(O)c2c1OCC(=O)N2)C(=O)CCNCCc1ccc(Cl)c(Cl)c1 [Example 59, dihydrochloride] :: 0.87
O=C(CCNCCc1ccccc1)N(CCNCCc1ccc(O)c(O)c1)C1CCCCC1 [Example 22, bis(trifluoroacetate)] :: 1.01
O=C1COc2c(CCNCCN(C(=O)CCNCCc3cc(F)ccc3F)C3CCCCCC3)ccc(O)c2N1 [Example 64, bis(trifluoroacetate)] :: 0.88
O=CNc1cc(CCNCCN(C(=O)CCNCCc2ccccc2)C2CCCCC2)ccc1O :: 0.83

* * *

biological target: recombinant human α1D receptor (Homo sapiens, UniProt P25100); construct: expressed in transfected cells; host or cells: human embryonic kidney 293 cells (HEK93 [sic]), membranes; assay: Adrenergic α1D selectivity assay, [3H]-prazosin binding to membranes; details: inhibition of [3H]-prazosin binding, HEK cell membranes, read-out: α1 bind pIC50 (converted)
Sequence (P25100 whole entry): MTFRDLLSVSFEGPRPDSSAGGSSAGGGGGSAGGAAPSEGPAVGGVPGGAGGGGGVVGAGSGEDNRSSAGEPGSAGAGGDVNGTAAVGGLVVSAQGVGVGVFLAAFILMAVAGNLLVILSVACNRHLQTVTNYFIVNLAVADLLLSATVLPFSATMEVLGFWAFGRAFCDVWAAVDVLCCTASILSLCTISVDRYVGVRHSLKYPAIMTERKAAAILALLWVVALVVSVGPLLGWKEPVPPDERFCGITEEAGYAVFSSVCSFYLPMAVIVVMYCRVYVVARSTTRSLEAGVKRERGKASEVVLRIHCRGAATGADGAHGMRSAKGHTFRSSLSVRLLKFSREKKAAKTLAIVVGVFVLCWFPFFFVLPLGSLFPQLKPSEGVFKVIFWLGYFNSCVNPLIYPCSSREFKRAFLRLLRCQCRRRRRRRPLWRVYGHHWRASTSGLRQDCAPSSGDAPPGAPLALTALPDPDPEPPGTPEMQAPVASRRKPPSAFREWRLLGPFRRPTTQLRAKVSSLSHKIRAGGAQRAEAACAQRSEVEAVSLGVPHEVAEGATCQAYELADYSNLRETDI
Measurement Kind: IC50 (nM)

O=C1COc2c(CCNCCN(C(=O)CCNCCc3ccccc3)C3CCCCCC3)ccc(O)c2N1 [Example 24, bis(trifluoroacetate)] :: 50.1
O=C1COc2c(CCNCCN(C(=O)CCNCCc3ccc(Cl)c(Cl)c3)C3CCCCCC3)ccc(O)c2N1 [Example 26, bis(trifluoroacetate)] :: 79.4
CCCC[C@@H](C)N(CCNCCc1ccc(O)c2c1OCC(=O)N2)C(=O)CCNCCc1cc(F)cc(F)c1 [Example 51, bis(trifluoroacetate)] :: 316
O=C1COc2c(CCNCCN(C(=O)CCNCCc3cc(F)cc(F)c3)C3CCCCC3)ccc(O)c2N1 [Example 35, bis(trifluoroacetate)] :: 398

a. Cl.O=C(CCOCCc1cccc(F)c1)N(CCNCCc1ccc(O)c2[nH]c(=O)ccc12)C1CCCCC1 [Example 72, hydrochloride]
b. O=C1COc2c(CCNCCN(C(=O)CCNCCc3ccc(F)c(F)c3)C3CCCCCC3)ccc(O)c2N1 [Example 67, bis(trifluoroacetate)]
Hi there, can you help? I need to know whether a or b has lower measured IC50. Your choice should be expressed through its label.
b

* * *

molecular target: Adrenergic β2 (Homo sapiens, UniProt P07550); construct: Adherent H292 cells were removed from tissue culture flasks; endogenous in cells; host or cells: H292 cells; assay: Adrenergic β2 mediated cAMP production in H292 cells (AlphaScreen cAMP detection); assay type: cell-based; parameters: key: fraction of formoterol maximum activity (formoterol = 1); conditions: Intrinsic Activity as a fraction relative to the maximum activity determined for formoterol
Structures can show the parent of a compound that is named as a salt.
Measurement Kind: β2 Int Act

Answered examples (8):
CCCCN(CCNCCc1ccc(O)c2[nH]c(=O)ccc12)C(=O)CCOCCc1ccccc1 [Example 1, hydrochloride] :: 0.9
O=C1COc2c(CCNCCN(C(=O)CCNCCc3ccc(Cl)cc3)C3CCCCCC3)ccc(O)c2N1 [Example 63, bis(trifluoroacetate)] :: 0.79
CCCC[C@@H](C)N(CCNCCc1ccc(O)c2c1OCC(=O)N2)C(=O)CCNCCc1ccc(Cl)c(Cl)c1 [Example 55, bis(trifluoroacetate)] :: 0.92
O=C1COc2c(CCNCCN(C(=O)CCOCCc3ccc(F)cc3)C3CCCCC3)ccc(O)c2N1 [Example 75, trifluoroacetate] :: 0.96
Cc1ccc(F)c(CCNCCC(=O)N(CCNCCc2ccc(O)c3c2OCC(=O)N3)C2CCCCC2)c1 [Example 33, bis(trifluoroacetate)] :: 0.9
CC(C)[C@@H](C)N(CCNCCc1ccc(O)c2[nH]c(=O)ccc12)C(=O)CCOCCc1ccccc1.Cl :: 1.04
CCCC[C@@H](C)N(CCNCCc1ccc(O)c2c1OCC(=O)N2)C(=O)CCNCCc1cccc(F)c1F [Example 53, bis(trifluoroacetate)] :: 0.99
Cl.O=C(CCOCCc1ccccc1F)N(CCNCCc1ccc(O)c2[nH]c(=O)ccc12)C1CCCCC1 :: 0.94

A. O=C1COc2c(CCNCCN(C(=O)CCNCCc3cc(F)cc(Cl)c3)C3CCCCCC3)ccc(O)c2N1 [Example 66, bis(trifluoroacetate)]
B. O=C(CCNCCc1ccc(F)cc1)N(CCNCCc1ccc(O)c2[nH]c(=O)ccc12)C1CCCCCC1 [Example 6, bis(trifluoroacetate)]
Between A and B , which one shows the larger β2 Int Act value? Your choice should be expressed through its label.
A
